# System: ATP;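 also: ATP exposure 15 min at 22 °C before imaging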
# ASSAY PROCEDURE: switch fluorescence ratio, 500 uM ATP over buffer (Cy3 cluster intensity, sum of 5 cycles each) (fold (ratio)); higher = stronger signal-on switching upon ATP binding; sequences stand for … in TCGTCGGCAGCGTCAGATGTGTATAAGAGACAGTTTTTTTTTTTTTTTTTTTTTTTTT…TC
# MEASUREMENT SETUP: aptamer strand: ATP DNA aptamer (quencher-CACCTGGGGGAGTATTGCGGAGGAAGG + anchor), 100 nM annealed; ATP concentration: 500 uM
# binarize switch fluorescence ratio: threshold 1 inclusive, high side t, low side f

>>> assigned_label("TGAGGGGT")
"f"
>>> assigned_label("ATCTTGTGGG")
"f"
>>> assigned_label("TTGATATTTT")
"t"
>>> assigned_label("ACGTATGAAA")
"t"
>>> assigned_label("TTTGGGAGTG")
"f"
>>> assigned_label("AAGAACTAAA")
"t"
>>> assigned_label("ACACGCAAAA")
"t"
>>> assigned_label("TGGGGCCTTA")
"f"
>>> assigned_label("CGCTGCTCGC")
"t"
>>> assigned_label("CTCGAAGTTG")
"f"
>>> assigned_label("GTAGCAGGGG")
"t"
>>> assigned_label("GAAATTCCGA")
"t"
>>> assigned_label("AAGGGATTGT")
"t"
>>> assigned_label("ACAGTAATGG")
"t"
>>> assigned_label("CTCTGTTACA")
"t"
>>> assigned_label("GCGGCAGGGC")
"t"
>>> assigned_label("TGGGAATACG")
"t"
>>> assigned_label("TCTGGCGGGG")
"t"
>>> assigned_label("AACCTCTCGG")
"t"
>>> assigned_label("ACAGGGTGTC")
"t"
>>> assigned_label("CTTGGGTTTT")
"f"
>>> assigned_label("CATGGAATAG")
"t"
>>> assigned_label("CGATTGCATT")
"t"
>>> assigned_label("TTTCTGTTGT")
"t"
>>> assigned_label("TGCGAGGTCA")
"t"
>>> assigned_label("AGACGGACGT")
"t"
>>> assigned_label("ATTAAGCGGC")
"t"
>>> assigned_label("TTTCAATCTG")
"t"
